Record form. Attribute: LD50 at 24 h. Fill in for each entry.
- TEST SUMMARY: Acute toxicity, intravenous, mice
- MEASUREMENT SETUP: mouse, in vivo, male SclddY mice, tail vein injection in saline, mortality within 24 hours, Probit method
One number for each entry, in mg/kg.

Write down LD50 at 24 h measured for item `O=C(O)CCC/C=C\[C@H]1[C@@H]2CC[C@@H](C2)[C@@H]1NS(=O)(=O)c1ccccc1`
237

Moving on to another compound below.
Write down LD50 at 24 h measured for item `O=S(=O)(N[C@H]1[C@H]2CC[C@H](C2)[C@@H]1/C=C\CCCc1nnn[nH]1)c1ccccc1`
209

* * *

- System: washed platelets
- TEST SUMMARY: Partial agonistic activity (shape change of rat platelets)
- Type: cell-based
- MEASUREMENT SETUP: Platelet, decrease in light transmission by test compound itself, 50% of maximal agonistic activity of reference compound, read-out: Activity of Partial Agonist EC50
PROPERTY NAME: EC50 (nM)
One number for each entry, in nM.

Some solved entries appear below for comparison.
State measured EC50 of the compound Cc1ccc(S(=O)(=O)N[C@H]2[C@H]3CC[C@H](C3)[C@@H]2C/C=C\CCCC(=O)O)cc1 [Rf. Compd., reference compound] with washed platelets.
1

State measured EC50 of the compound `O=C(O)CCC/C=C\[C@H]1[C@@H]2CC[C@@H](C2)[C@@H]1NS(=O)(=O)c1ccc(Cl)cc1` with washed platelets.
300

State measured EC50 of the compound `O=C(O)CCC/C=C\[C@H]1[C@@H]2CC[C@@H](C2)[C@@H]1NS(=O)(=O)c1ccc(Br)cc1` with washed platelets.
130

Moving on to another compound below.
State measured EC50 of the compound `O=C(O)CCC/C=C\[C@H]1[C@@H]2CC[C@@H](C2)[C@@H]1NS(=O)(=O)c1ccc(O)cc1` with washed platelets.
150

* * *

- Test system: washed platelets
- TEST SUMMARY: Partial agonistic activity (shape change of rat platelets)
- Format: cell-based
- MEASUREMENT SETUP: Platelet, decrease in light transmission by test compound itself, 50% of maximal agonistic activity of reference compound, read-out: Activity of Partial Agonist EC50
PROPERTY NAME: EC50

Some solved entries appear below for comparison.
Write down EC50 measured for item O=S(=O)(N[C@H]1[C@H]2CC[C@H](C2)[C@@H]1/C=C\CCCc1nnn[nH]1)c1ccccc1 [If-c]
> 1000 nM

Write down EC50 measured for item O=C(O)CCC/C=C\[C@H]1[C@@H]2CC[C@@H](C2)[C@@H]1NS(=O)(=O)c1ccccc1 [Ia-c]
> 1000 nM

Moving on to another compound below.
Write down EC50 measured for item Cc1ccc(S(=O)(=O)N[C@H]2[C@H]3CC[C@H](C3)[C@@H]2/C=C\CCCC(=O)O)cc1 [Ib-c]
> 1000 nM
